target: recombinant human HGF (R&D Systems, Catalog No. 294-HGN-025) (human, UniProt P14210 32-728); test: SPR
Sequence (P14210 32-728): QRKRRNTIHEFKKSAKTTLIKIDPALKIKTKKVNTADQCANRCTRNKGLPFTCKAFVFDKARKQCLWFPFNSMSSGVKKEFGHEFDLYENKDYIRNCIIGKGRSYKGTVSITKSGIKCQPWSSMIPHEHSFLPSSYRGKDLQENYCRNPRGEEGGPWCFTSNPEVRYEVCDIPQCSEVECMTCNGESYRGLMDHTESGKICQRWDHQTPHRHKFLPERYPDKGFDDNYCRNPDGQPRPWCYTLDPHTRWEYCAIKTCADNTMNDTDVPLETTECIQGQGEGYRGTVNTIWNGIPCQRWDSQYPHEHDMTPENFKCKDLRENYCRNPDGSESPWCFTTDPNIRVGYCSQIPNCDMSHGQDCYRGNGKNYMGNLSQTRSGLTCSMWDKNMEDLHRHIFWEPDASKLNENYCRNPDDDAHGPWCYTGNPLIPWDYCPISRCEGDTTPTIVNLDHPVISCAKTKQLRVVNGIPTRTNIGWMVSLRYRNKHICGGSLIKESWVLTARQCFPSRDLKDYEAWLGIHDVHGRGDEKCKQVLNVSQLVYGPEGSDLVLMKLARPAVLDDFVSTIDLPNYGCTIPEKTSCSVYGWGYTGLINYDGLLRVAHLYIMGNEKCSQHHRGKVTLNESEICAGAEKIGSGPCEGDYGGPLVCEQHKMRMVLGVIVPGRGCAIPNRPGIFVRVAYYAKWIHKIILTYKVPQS
EXPERIMENTAL READOUT: pKd
FYI, pKd means -log10 of a concentration in mol per litre.

Prompt: Which measured pKd value corresponds to Hu2B8_Kv3-15.1 / Hu2B8_Hv1-f.1 (antibody, V domains shown) VH: EVQLVQSGAEVKKPGATVKISCKVSGYTFTTYWMHWVQQAPGKGLEWMGEINPTNGHTNYNEKFQGRVTITADTSTDTAYMELSSLRSEDTAVYYCATNYVGSIFDYWGQGTLVTVSS VL: EIVMTQSPATLSVSPGERATLSCKASENVVSYVSWYQQKPGQAPRLLIYGASNRNTGIPARFSGSGSGTEFTLTISSLQSEDFAVYYCGQSYNYPYTFGQGTKLEIKR ?
Completion: 9.33
